This collection of values is drawn from ChEMBL document CHEMBL1159044.

So I've got a bunch of molecules here, and I need their pEC50 values.
Tested on: A549
Experiment: Cytotoxicity against human A549 after 72 hrs by SRB assay
Assay type: functional
Settings: A549, 72 h, read-out: ED50 (the source's name)
Answers are plain numbers, as −log10 of the molar value.

# SAMPLE SMILES, SUBJECT OF TEST, pEC50
rows = [
    ("Cc1cccc(-c2cc3occ(C)c3c(=O)o2)c1", "A549", 4.27),
]

Provide pEC50 for all items below, preserving their order.
1. COc1cccc(-c2cc3occ(C)c3c(=O)o2)c1
2. Cc1coc2cc(-c3ccc(O)c(O)c3)oc(=O)c12
3. CCOc1cccc(-c2cc3occ(C)c3c(=O)o2)c1
4. Cc1coc2cc(-c3cccc(O)c3)oc(=O)c12
5. COc1cc(-c2cc3occ(C)c3c(=O)o2)cc(OC)c1OC

Key:
1: 4.24; 2: 4.71; 3: 4.24; 4: 4.16; 5: 4.20
